# Measured On: GLP1R (Homo sapiens, UniProt P43220)
# Sequence (P43220 24-463): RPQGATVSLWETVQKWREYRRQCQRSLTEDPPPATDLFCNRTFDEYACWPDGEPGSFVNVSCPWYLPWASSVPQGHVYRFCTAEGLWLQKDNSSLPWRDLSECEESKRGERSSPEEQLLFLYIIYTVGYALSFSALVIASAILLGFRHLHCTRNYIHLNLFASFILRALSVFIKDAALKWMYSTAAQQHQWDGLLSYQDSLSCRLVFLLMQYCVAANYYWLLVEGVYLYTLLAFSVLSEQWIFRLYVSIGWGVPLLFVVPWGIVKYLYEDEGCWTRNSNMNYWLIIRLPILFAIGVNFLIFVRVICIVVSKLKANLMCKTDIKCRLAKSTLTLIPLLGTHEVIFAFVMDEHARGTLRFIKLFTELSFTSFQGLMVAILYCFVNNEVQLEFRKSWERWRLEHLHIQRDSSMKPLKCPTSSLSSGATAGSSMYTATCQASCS
# Assay Notes: Agonist activity on GLP1R/CRE-LUC HEK293 cells (luciferase reporter, ONE-Glo)
# Protocol Conditions: GLP1R/CRE-LUC HEK293 cells, 6 hours incubation, chemiluminescence signal
pEC50: −log10 of the molar value.
Metric Name: pEC50

O=C(O)c1ccc2nc(Cc3ccc(-c4ccc(F)c(OCc5ccc(Cl)c6cc(F)oc56)n4)cc3F)n(C[C@@H]3CCO3)c2c1 [Compound 94] | 9.05
O=C(O)c1ccc2nc(CN3CC=C(c4cccc(OCc5ccc(Cl)c6ccoc56)n4)CC3)n(C[C@@H]3CCO3)c2c1 [DB02, reference compound] | 7.87
O=C(O)c1ccc2nc(Cc3cc(F)c(-c4cccc(OCc5ccc(Cl)c6ccoc56)n4)cc3F)n(C[C@@H]3CCO3)c2c1 [Compound 25] | 7.94
O=C(O)c1ccc2nc(Cc3ccc(-c4cccc(OCc5ccc(Cl)c6cc(F)oc56)n4)cc3F)n(C[C@@H]3CCO3)c2c1 [Compound 21] | 9.02
N#Cc1ccc(COc2cccc(N3CCC(Cc4nc5ccc(C(=O)O)cc5n4C[C@@H]4CCO4)CC3)n2)c2occc12 [Compound 3] | 7.19
O=C(O)c1ccc2nc(CC3=CCN(c4cccc(OCc5ccc(Cl)c6ccoc56)n4)CC3)n(C[C@@H]3CCO3)c2c1 [Compound 2] | 6.99
O=C(O)c1ccc2nc(CC3CC=C(c4cccc(OCc5cccc6c5oc5ccccc56)n4)CC3)n(C[C@@H]3CCO3)c2c1 (stereo partly shown) [Compound 15] | 7.59
O=C(O)c1ccc2nc(Cc3ccc(-c4cccc(OCc5ccc(Cl)c6ccoc56)n4)cc3F)n(C[C@@H]3CCO3)c2n1 [Compound 38] | 8.12

[I] O=C(O)c1ccc2nc(CC3CC=C(c4ccc(F)c(OCc5ccc(Cl)c6cc(Cl)oc56)n4)CC3)n(C[C@@H]3CCO3)c2c1 (stereo partly shown) [Compound 107]
[II] O=C(O)c1ccc2nc(Cc3ccc(-c4ccc(F)c(OCc5cccc6c5oc5ccccc56)n4)cc3F)n(C[C@@H]3CCO3)c2c1 [Compound 97]
[III] O=C(O)c1ccc2nc(CC3CC=C(c4cccc(OCc5ccc(Cl)c6ccoc56)n4)CC3)n(C[C@@H]3CCO3)c2c1 (stereo partly shown) [Compound 7]
[IV] COCCn1c(Cc2ccc(-c3cccc(OCc4ccc(C#N)c5ccoc45)n3)cc2F)nc2ccc(C(=O)O)cc21 [DB04, reference compound]
# ascending order, key=pEC50 The reply should contain the labels ordered as requested.
IV, III, II, I
